# test: pH dependent aqueous solubility, shake-flask method
# Assay type: physicochemical
# assay_conditions: aqueous solution, pH 7, aqueous buffer, thermodynamic from solid, pH7, ambient temperature, saturated concentration 1 mM, read-out: Aqueous solubility pH7
# Protocol: The aqueous solubility of each compound was determined by the conventional shake-flask method at a saturated concentration of 1 mM. The flask (vial) was shaken for 3 hrs at ambient temperature, and then centrifuged. The supernatant was analyzed by HPLC with UV detection for solubility determination. In general, a higher aqueous solubility is more desirable for drug candidates.
So basically: solubility at 3 h at 9 µM or higher? That is MET. Lower than 9 µM? That is NOT MET.

compound | answer_label
COP(=O)(C1=C(C(=O)NCc2ccncc2)N=C2C=CC(Cl)=CC21)c1cc(C)cc(F)c1 (centres unmarked) [Compound P] | MET
COP(=O)(C1=C(C(=O)NCc2ccncc2)N=C2C=CC(Cl)=CC21)c1cc(C)cc(C)c1 (centres unmarked) [Compound N] | NOT MET
COP(=O)(c1cc(C)cc(C)c1)c1c(C(=O)NCc2cc[n+]([O-])cc2)[nH]c2ccc(Cl)c(F)c12 (centres unmarked) [Compound B] | MET
COP(=O)(c1cc(C)cc(C)c1)c1c(C(=O)NCc2cc[n+]([O-])cc2)[nH]c2ccc(Cl)cc12 (centres unmarked) [Compound D] | MET

###

# test: PK and oral bioavailability in the dog
# Format: in vivo, Beagle dogs
# assay_conditions: Beagle, plasma, PO, 5.0 mg/kg, PEG400

molecule | unit_of_measurement | AUC(0-inf)
COP(=O)(C1=C(C(=O)NCc2ccncc2)N=C2C=CC(Cl)=CC21)c1cc(C)cc(C)c1 (stereo not shown) | ng·h/mL | 139

###

# System: HIV BH-10 WT
# test: Cell-based assay using BH-10 cells, wild type
# assay_conditions: Human immunodeficiency virus 1, read-out: EC50 WT///B, BH-10 cells, wild type
Field 'label' (enum: True / False). Set to True when EC50 is strictly under 2 nM; else False.

compound | answer_label
CCOP(=O)(c1cccc(OC)c1)c1c(C(N)=O)[nH]c2ccc(Cl)cc12 (centres unmarked) | False
CCOP(=O)(c1cccs1)c1c(C(N)=O)[nH]c2ccc(Cl)cc12 (centres unmarked) | False
COP(=O)(c1cc(C)cc(C)c1)c1c(C(=O)NCc2ccccn2)[nH]c2ccc(Cl)cc12 (centres unmarked) | False
COP(=O)(c1cc(C)cc(C#N)c1)c1c(C(=O)NCc2cncn2C)[nH]c2ccc(Cl)cc12 (centres unmarked) | False
COP(=O)(c1cc(C)cc(C)c1)c1c(C(=O)NCc2cccc[n+]2[O-])[nH]c2ccc(Cl)cc12 (centres unmarked) [Compound 22p] | True
COP(=O)(c1cc(C)cc(C)c1)c1c(C(=O)NCc2cnc[n+]([O-])c2)[nH]c2ccc(Cl)cc12 (centres unmarked) [Compound 22g] | False
COP(=O)(c1cccc(C(F)(F)F)c1)c1c(C(N)=O)[nH]c2ccc(Cl)cc12 (centres unmarked) | True
COP(=O)(c1cccc(Cl)c1)c1c(C(N)=O)[nH]c2ccc(Cl)cc12 (centres unmarked) | True

###

The entries below come with measured pEC50 values attached.
# System: HIV BH-10 WT
# test: Cell-based assay using BH-10 cells, wild type
# assay_conditions: Human immunodeficiency virus 1, read-out: EC50 WT///B, BH-10 cells, wild type
pEC50: −log10 of the molar value.

compound | target_or_test_system | result_operator | pEC50
NC(=O)c1[nH]c2ccc(Cl)cc2c1P(=O)(O)c1ccccc1 [Compound 60a] | HIV BH-10 WT | < | 5.90
COP(=O)(c1cccc(/C=C/C#N)c1)c1c(C(N)=O)[nH]c2ccc(Cl)cc12 (stereo not shown) [Compound 33a] | HIV BH-10 WT | = | 8.49
COP(=O)(CC=C(C)C)c1c(C(N)=O)[nH]c2ccc(Cl)cc12 (stereo not shown) [Compound 57b] | HIV BH-10 WT | = | 9.10
CN(C)P(=O)(c1ccccc1)c1c(C(N)=O)[nH]c2ccc(Cl)cc12 (stereo not shown) [Compound 31a] | HIV BH-10 WT | = | 7.86

###

# Tested on: HIV mutant strain Y181C
# test: Cell-based assay using BH-10 cells, Y181C mutant
# assay_conditions: Human immunodeficiency virus 1, read-out: EC50 Y181C, BH-10 cells, Y181C mutant
pEC50: −log10 of the molar value.
Label scheme for pEC50: lower than 8 is not met, 8 and above is met.

compound | answer_label
COP(=O)(c1cc(C)cc(C)c1)c1c(C(=O)NCc2ccncn2)[nH]c2ccc(Cl)cc12 (centres unmarked) [Compound 18l] | met
CCOP(=O)(c1cccc2ccccc12)c1c(C(N)=O)[nH]c2ccc(Cl)cc12 (centres unmarked) | not met
CCOP(=O)(c1cc(C)cc(C)c1)c1c(C(N)=O)[nH]c2ccc(Cl)cc12 (centres unmarked) | not met
COP(=O)(c1cc(F)cc(Br)c1)c1c(C(N)=O)[nH]c2ccc(Cl)cc12 (centres unmarked) | met

###

Entries and their Cmax values follow.
# test: PK and oral bioavailability in the dog
# Assay type: in vivo, Beagle dogs
# assay_conditions: Beagle, plasma, IV, 1.0 mg/kg, PEG400

compound | Cmax [ng/mL]
COP(=O)(c1cc(C)cc(C)c1)c1c(C(=O)NCc2cc[n+]([O-])cc2)[nH]c2ccc(Cl)cc12 (centres unmarked) | 430
COP(=O)(C1=C(C(=O)NCc2ccncc2)N=C2C=CC(Cl)=CC21)c1cc(C)cc(C)c1 (centres unmarked) | 407

###

# test: Human plasma protein binding, equilibrium dialysis
# Format: in vitro ADME
# assay_conditions: pooled human plasma, 37° C., about 6 hours, 1 μM drug, read-out: Protein binding (human plasma) % Free
measured_parameter: fraction unbound at 6 h, 1 μM

compound | reported_value
COP(=O)(c1cc(C)cc(C)c1)c1c(C(=O)NCc2cc[n+]([O-])cc2)[nH]c2ccc(Cl)c(F)c12 (stereo not drawn) | 0.038
COP(=O)(c1cc(C)cc(F)c1)c1c(C(=O)NCc2cc[n+]([O-])cc2)[nH]c2ccc(Cl)cc12 (stereo not drawn) | 0.016
COP(=O)(C1=C(C(=O)NCc2ccncc2)N=C2C=CC(Cl)=CC21)c1cc(C)cc(F)c1 (stereo not drawn) | < 0.005
COP(=O)(c1cc(C)cc(C)c1)c1c(C(=O)NCc2cc[n+]([O-])cc2)[nH]c2ccc(Cl)cc12 (stereo not drawn) | 0.016
COP(=O)(C1=C(C(=O)NCc2ccncc2)N=C2C=CC(Cl)=C(F)C21)c1cc(C)cc(C)c1 (stereo not drawn) | 0.009
COP(=O)(C1=C(C(=O)NCc2ccncc2)N=C2C=CC(Cl)=CC21)c1cc(C)cc(C)c1 (stereo not drawn) | 0.002

###

# test: pH dependent aqueous solubility, shake-flask method
# Type: physicochemical
# assay_conditions: aqueous solution, pH 3, aqueous buffer, thermodynamic from solid, pH3, ambient temperature, saturated concentration 1 mM, read-out: Aqueous solubility pH3
Reported solubility at 3 h values for the following compounds.
measured_parameter: solubility at 3 h

compound | measured_parameter | reported_value
COP(=O)(c1cc(C)cc(C)c1)c1c(C(=O)NCc2cc[n+]([O-])cc2)[nH]c2ccc(Cl)cc12 (centres unmarked) | solubility at 3 h | 74.2 µM
COP(=O)(C1=C(C(=O)NCc2ccncc2)N=C2C=CC(Cl)=C(F)C21)c1cc(C)cc(C)c1 (centres unmarked) | solubility at 3 h | 590 µM
COP(=O)(C1=C(C(=O)NCc2ccncc2)N=C2C=CC(Cl)=CC21)c1cc(C)cc(F)c1 (centres unmarked) | solubility at 3 h | 724 µM
COP(=O)(C1=C(C(=O)NCc2ccncc2)N=C2C=CC(Cl)=CC21)c1cc(C)cc(C)c1 (centres unmarked) | solubility at 3 h | 231 µM
COP(=O)(c1cc(C)cc(C)c1)c1c(C(=O)NCc2cc[n+]([O-])cc2)[nH]c2ccc(Cl)c(F)c12 (centres unmarked) | solubility at 3 h | 170 µM

###

# target_or_test_system: HIV reverse transcriptase Y181C (Human immunodeficiency virus type 1 group M subtype B, UniProt P03366, Y780C)
# test: Enzyme assay, reverse transcriptase Y181C
Doc: threshold 4 µM (exclusive). Items with IC50 beneath it return class 1; others return class 0.

compound | answer_label
CCOP(=O)(c1ccccc1)c1c(C(N)=O)[nH]c2ccc(Cl)cc12 (stereo not shown) [Compound 6a] | class 1
COP(=O)(c1ccccc1)c1c(C(=O)NCc2ccncc2)[nH]c2ccc(Cl)cc12 (stereo not shown) [Compound 18ar] | class 1
NC(=O)c1[nH]c2ccc(Cl)cc2c1P(=O)(O)c1ccccc1 [Compound 60a] | class 0
CCOP(=O)(c1cc(C)cc(C)c1)c1c(C(=O)NCc2ccncc2)[nH]c2ccc(Cl)cc12 (stereo not shown) [Compound 9a] | class 0
CCOP(=O)(c1cc(C)cc(C)c1)c1c(C(N)=O)[nH]c2ccc(Cl)cc12 (stereo not shown) [Compound 6b] | class 0
CCOP(=O)(c1ccccc1F)c1c(C(N)=O)[nH]c2ccc(Cl)cc12 (stereo not shown) [Compound 6ad] | class 0
COP(=O)(c1ccccc1)c1c(C(N)=O)[nH]c2ccc(Cl)cc12 (stereo not shown) [Compound 7ah] | class 1
CCOP(=O)(c1ccc(F)cc1)c1c(C(N)=O)[nH]c2ccc(Cl)cc12 (stereo not shown) [Compound 6c] | class 0
CCOP(=O)(c1cc(F)cc(F)c1)c1c(C(N)=O)[nH]c2ccc(Cl)cc12 (stereo not shown) [Compound 6ac] | class 1
CN(C)P(=O)(c1ccccc1)c1c(C(N)=O)[nH]c2ccc(Cl)cc12 (stereo not shown) [Compound 31a] | class 0
CP(=O)(c1ccccc1)c1c(C(N)=O)[nH]c2ccc(Cl)cc12 (stereo not shown) [Compound 29a] | class 1
COP(=O)(c1ccccc1)c1c(C(N)=O)[nH]c2ccccc12 (stereo not shown) [Compound 7ai] | class 0
NC(=O)c1[nH]c2ccc(Cl)cc2c1P(=O)(c1ccccc1)c1ccccc1 [Compound 27a] | class 0
